Tested on: HCC 2998
method.description: Growth inhibition of human HCC2998 cells at 10^-5 M incubated for 48 hrs by sulforhodamine B assay
Assay type: functional
test.parameters: HCC 2998, 48 h, read-out: GI
measured.quantity: inhibition of growth at 10 µM (%)
Your answer should be a plain number; it is taken to be in %.

Asked: State its inhibition of growth at 10 µM: NC(=O)CSC1=Nc2c(sc3ccc(Cl)cc23)C(c2cccc([N+](=O)[O-])c2)N1 (stereo not given)
Given back: -5.21

Asked: State its inhibition of growth at 10 µM: O=[N+]([O-])c1cccc(C2c3sc4ccc(Cl)cc4c3N=C3NN=NN32)c1 (stereo not given)
Given back: 1.22

Asked: State its inhibition of growth at 10 µM: O=C1Nc2c(sc3ccc(Cl)cc23)C(c2ccc3ccccc3c2)N1 (stereo not given)
Given back: -14.6

Asked: State its inhibition of growth at 10 µM: Cc1cc(C)n(C2=Nc3c(sc4ccc(Cl)cc34)C(c3cccc([N+](=O)[O-])c3)N2)n1 (stereo not given)
Given back: -5.86

Asked: State its inhibition of growth at 10 µM: O=C1CSC2=Nc3c(sc4ccc(Cl)cc34)C(c3ccc4ccccc4c3)N12 (stereo not given)
Given back: -30.1

Asked: State its inhibition of growth at 10 µM: "O=C1/C(=C\c2ccccc2O)Sc2ccc(Cl)cc21"
Given back: -25.6

Asked: State its inhibition of growth at 10 µM: N=C1Nc2c(sc3ccc(Cl)cc23)C(c2ccccc2O)N1 (stereo not given)
Given back: -22.2

Asked: State its inhibition of growth at 10 µM: NNC1=Nc2c(sc3ccc(Cl)cc23)C(c2cccc([N+](=O)[O-])c2)N1 (stereo not given)
Given back: -1.26

Asked: State its inhibition of growth at 10 µM: N#Cc1cnn(C2=Nc3c(sc4ccc(Cl)cc34)C(c3cccc([N+](=O)[O-])c3)N2)c1N (stereo not given)
Given back: -3.42

Asked: State its inhibition of growth at 10 µM: "O=C1/C(=C\c2ccc3ccccc3c2)Sc2ccc(Cl)cc21"
Given back: -27.2
